# Tested target: Protein mono-ADP-ribosyltransferase TIPARP (Homo sapiens)
# Sequence (Q7Z3E1 whole entry): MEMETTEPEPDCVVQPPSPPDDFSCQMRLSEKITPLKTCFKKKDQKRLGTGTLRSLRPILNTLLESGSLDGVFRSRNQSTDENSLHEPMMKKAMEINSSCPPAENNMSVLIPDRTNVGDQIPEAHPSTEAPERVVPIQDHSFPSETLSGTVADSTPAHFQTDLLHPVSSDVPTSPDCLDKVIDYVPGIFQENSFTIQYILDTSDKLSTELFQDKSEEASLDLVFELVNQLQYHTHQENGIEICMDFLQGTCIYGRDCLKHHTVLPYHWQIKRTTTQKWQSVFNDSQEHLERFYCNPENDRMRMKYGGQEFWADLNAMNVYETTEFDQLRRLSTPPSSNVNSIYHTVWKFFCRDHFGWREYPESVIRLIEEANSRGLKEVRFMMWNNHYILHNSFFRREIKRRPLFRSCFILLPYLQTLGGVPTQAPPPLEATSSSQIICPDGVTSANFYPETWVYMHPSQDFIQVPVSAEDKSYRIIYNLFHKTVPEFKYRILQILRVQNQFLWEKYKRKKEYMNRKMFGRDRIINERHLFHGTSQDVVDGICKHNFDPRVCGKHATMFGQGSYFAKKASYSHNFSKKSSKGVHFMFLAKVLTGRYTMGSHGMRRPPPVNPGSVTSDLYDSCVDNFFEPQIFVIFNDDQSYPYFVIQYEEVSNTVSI
# Experimental details: Enzymatic Assay for Inhibition of PARP7: Displacement of Probe A, a biotinylated probe binding to the TIPARP active site, was measured using a time-resolved fluorescence energy transfer (TR-FRET) assay. 20 nL of a dose response curve of each test compound was spotted in black 384-well polystyrene proxiplates (Perkin Elmer) using a Mosquito (TTP Labtech). Reactions were performed in a 8 μL volume by adding 6 μL of TIPARP and Probe A in assay buffer (20 mM HEPES pH=8, 100 mM NaCl, 0.1% bovine serum albumin, 2 mM DTT and 0.002% Tween20), incubating with test compound at 25° C. for 30 min, then adding 2 μL of ULight-anti 6×His and LANCE Eu-W1024 labeled streptavidin (Perkin Elmer). The final concentrations of TIPARP and Probe A were 6 nM and 2 nM, respectively. The final concentration of ULight-anti 6xHis and LANCE Eu-W1024 labeled streptavidin were 4 nM and 0.25 nM, respectively. Reactions were incubated at 25° C. for an additional 30 min, then read on an Envision platereader equipped with a LANCE/DELFIA top mirror (Perkin Elmer) using excitation of 320 nm and emission of 615 nm and […] with a 90 μs delay. The ratio of the 665/615 nm emission were calculated for each well to determine the amount of complex of TIPARP and Probe A in each well. […] The Hill Coefficient is normally allowed to float but may also be fixed at 1 in a 3-parameter fit. Y is the % inhibition and x is the compound concentration.
Observable: IC50

Would you please look over these solved cases?
{"Compound": "O=C(CCOC[C@@H]1CCCN1c1cn[nH]c(=O)c1C(F)(F)F)N[C@H]1CC[C@H](Nc2ccccn2)CC1", "Measured value": "100 to 1000 nM"}
{"Compound": "N#Cc1ccc(N2CCN(C(=O)CCOCCOC3CN(c4cn[nH]c(=O)c4C(F)(F)F)C3)CC2)nc1", "Measured value": "> 1000 nM"}
{"Compound": "C[C@@H](COCCC(=O)N1CCC(Nc2ncc(C(F)(F)F)s2)C1)Nc1cn[nH]c(=O)c1C(F)(F)F (stereo partly drawn)", "Measured value": "< 100 nM"}
{"Compound": "O=C(CCOC[C@H](Nc1cn[nH]c(=O)c1C(F)(F)F)C1CCNCC1)N1CCN(c2ncc(C(F)(F)F)cn2)CC1", "Measured value": "< 100 nM"}
{"Compound": "N#Cc1ccc(N2CCN(C(=O)[C@H]3C[C@H](OC[C@@H]4CCCN4c4cn[nH]c(=O)c4C(F)(F)F)C3)CC2)nc1", "Measured value": "< 100 nM"}
{"Compound": "O=C(COC[C@@H]1CCCN1c1cn[nH]c(=O)c1C(F)(F)F)N[C@H]1CC[C@@H](Nc2ccccn2)CC1", "Measured value": "100 to 1000 nM"}
{"Compound": "N#Cc1ccc(N2CCN(C(=O)CC3COCCN3c3cn[nH]c(=O)c3C(F)(F)F)CC2)nc1 (stereo not drawn)", "Measured value": "< 100 nM"}

The recorded IC50 with Protein mono-ADP-ribosyltransferase TIPARP (Homo sapiens) for `O=c1[nH]ncc(N2Cc3cccc(O)c3C2)c1C(F)(F)F` was < 100 nM
